// provenance: PubChem BioAssay AID1159580

The entries below are paired with their reported normalized growth.
Experiment: chemical genetic growth profiling, strain panel (AID 1159580);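 further: tested at 20 µM; growth read once vehicle control cultures reached saturation at 30 °C; 1 = growth at the plate median or of vehicle wells; lower values mean less growth of the strain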
Conditions: S. cerevisiae deletion strains, growth OD, locus YPR167C, strain met16, active compounds read low
About 2,000 (36%) of roughly 5,500 compounds were called active. Another 18% or so got no clear call; they are omitted. Some of the results follow.
Answer with a number only.

COc1cc(OC)c2c3c1C(=O)c1c(OC)cc(C)c4c(OC)cc(c-3c14)C(C)(C)C2=O :: 0.981

Form: compound = NC(N)=NCCCC(NC(=O)C(N)Cc1ccc(O)cc1)C(=O)O (stereo not drawn) ; normalized growth = 0.997

According to the records, this compound CC(=O)N=c1sc(S(N)(=O)=O)nn1C displays normalized growth of 1
